- assayed system: NTRK1 (human) (UniProt P04629)
- Sequence (P04629 whole entry, looked up): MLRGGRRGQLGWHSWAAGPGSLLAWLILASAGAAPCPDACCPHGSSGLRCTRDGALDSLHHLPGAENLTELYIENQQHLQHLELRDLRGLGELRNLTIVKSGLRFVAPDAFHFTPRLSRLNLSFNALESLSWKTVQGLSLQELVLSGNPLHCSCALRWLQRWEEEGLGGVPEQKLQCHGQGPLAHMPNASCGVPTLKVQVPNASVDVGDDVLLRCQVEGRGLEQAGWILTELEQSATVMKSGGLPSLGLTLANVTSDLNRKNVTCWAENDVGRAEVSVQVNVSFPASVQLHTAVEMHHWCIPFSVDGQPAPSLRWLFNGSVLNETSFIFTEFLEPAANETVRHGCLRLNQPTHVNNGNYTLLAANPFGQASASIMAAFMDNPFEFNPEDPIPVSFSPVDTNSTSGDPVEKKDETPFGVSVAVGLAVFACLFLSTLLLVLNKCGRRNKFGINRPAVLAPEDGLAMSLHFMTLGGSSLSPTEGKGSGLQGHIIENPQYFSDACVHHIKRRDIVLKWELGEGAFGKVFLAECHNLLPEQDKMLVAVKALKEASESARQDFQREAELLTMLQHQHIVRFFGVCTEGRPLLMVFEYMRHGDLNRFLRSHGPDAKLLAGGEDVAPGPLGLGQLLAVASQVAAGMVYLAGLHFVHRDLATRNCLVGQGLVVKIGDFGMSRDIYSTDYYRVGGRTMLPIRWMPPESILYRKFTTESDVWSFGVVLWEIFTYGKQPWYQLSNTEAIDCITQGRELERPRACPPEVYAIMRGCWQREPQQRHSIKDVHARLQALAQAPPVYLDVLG
- assay procedure: radiometric filter-binding kinase assay, Kinase HotSpot
- protocol conditions: compound 0.5 µM; ATP 10 µM
Listing of entries alongside the reported residual activity.
Field format: number, assumed %, no unit text.

residual activity in this record for COc1ccc(OC)c2c(=S)c3ccccc3[nH]c12 : 87.5

residual activity for CC(=O)O/N=C1\C(=C2\C(=O)Nc3cc(Br)ccc32)Nc2ccccc21 is 54.7

# residual activity (molecule: CC(C)[C@H](CO)Nc1nc(Nc2cc(N)cc(Cl)c2)c2ncn(C(C)C)c2n1 ) is 45.4

What the record says about O=C(O)/C=C/c1cc(Br)c(Br)c(Br)c1Br : residual activity is 91.1

For this molecule ( Oc1ccc(Nc2nc(-c3ccc(Cl)cc3)cs2)cc1 ), measured residual activity is 104

Record summary for Cn1nc2c3c(cccc31)C(=O)c1ccccc1-2 : reported residual activity = 95

# residual activity (molecule: COc1cc2ncc(-c3ccccc3)nc2cc1OC ) is 93.2

The recorded residual activity for COc1cc2ncnc(N3CCN(C(=O)Nc4ccc(Oc5ccccc5)cc4)CC3)c2cc1OC is 90.6

Looking up O=C1NC(=O)C(c2c[nH]c3ccccc23)=C1c1c[nH]c2ccccc12 , I see its residual activity listed as 92

Entry O=C1NC(=O)C(c2cn(CCCO)c3ncccc23)=C1c1cnccn1 , residual activity reported as 88.1

// residual activity lookup, molecule = CCn1cnc2c(Nc3cccc(Cl)c3)nc(N[C@@H]3CCCC[C@@H]3N)nc21 , result: 92.9

====

Listed below: residual activity values for each entry.
- assayed system: UniProtKB Q99558
- Sequence (Q99558 whole entry, looked up): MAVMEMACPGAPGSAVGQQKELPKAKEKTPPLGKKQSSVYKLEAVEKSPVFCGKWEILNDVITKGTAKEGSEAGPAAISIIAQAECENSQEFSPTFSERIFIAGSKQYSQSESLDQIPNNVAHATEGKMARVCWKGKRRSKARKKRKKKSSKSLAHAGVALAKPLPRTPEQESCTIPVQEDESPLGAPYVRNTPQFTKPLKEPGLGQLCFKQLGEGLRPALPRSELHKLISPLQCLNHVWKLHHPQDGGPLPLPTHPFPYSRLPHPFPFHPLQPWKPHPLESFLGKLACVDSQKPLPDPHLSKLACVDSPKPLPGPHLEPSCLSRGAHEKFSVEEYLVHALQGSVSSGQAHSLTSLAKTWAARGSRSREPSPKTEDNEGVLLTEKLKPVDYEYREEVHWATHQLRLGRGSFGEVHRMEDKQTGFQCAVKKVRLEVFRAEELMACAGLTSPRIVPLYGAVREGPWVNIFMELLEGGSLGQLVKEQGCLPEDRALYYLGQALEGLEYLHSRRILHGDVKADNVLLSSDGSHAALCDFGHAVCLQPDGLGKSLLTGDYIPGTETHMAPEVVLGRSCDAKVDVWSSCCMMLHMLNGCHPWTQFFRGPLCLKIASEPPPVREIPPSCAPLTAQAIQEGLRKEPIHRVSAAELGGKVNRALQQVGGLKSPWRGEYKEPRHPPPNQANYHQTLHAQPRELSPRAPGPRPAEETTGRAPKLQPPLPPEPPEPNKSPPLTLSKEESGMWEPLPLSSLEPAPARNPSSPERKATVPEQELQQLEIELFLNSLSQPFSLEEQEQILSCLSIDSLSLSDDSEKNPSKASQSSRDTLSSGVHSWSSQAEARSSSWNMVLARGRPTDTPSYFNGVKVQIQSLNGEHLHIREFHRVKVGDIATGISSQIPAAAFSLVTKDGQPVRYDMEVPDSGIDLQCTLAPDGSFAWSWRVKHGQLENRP
- assay procedure: radiometric filter-binding kinase assay, Kinase HotSpot
- protocol conditions: compound 0.5 µM; ATP 10 µM
Respond with the figure and its unit, in that order.

These recorded examples may help you get a feel for the data.
Entry under test: COc1cc2ncnc(N3CCN(C(=O)Nc4ccc(Oc5ccccc5)cc4)CC3)c2cc1OC . Its residual activity was 105%

# residual activity (molecule: Cn1sc(=O)n(Cc2ccccc2)c1=O ) is 81.6%

Input Oc1ccc(Nc2nc(-c3ccc(Cl)cc3)cs2)cc1 . Output residual activity: 102%

Input Cc1nc2cc3nc(-c4cccs4)cnc3cc2n1C . Output residual activity: 97.4%

What the record says about O=C(CCCc1ccc(-c2ccccc2F)cc1)Nc1ccc(O)cc1 : residual activity is 99.2%

Now for the molecule whose residual activity we want.
get_value(item= CCn1cnc2c(Nc3cccc(Cl)c3)nc(N[C@@H]3CCCC[C@@H]3N)nc21 , readout=residual activity) returns 85.1%

====

- assayed system: CDK1 CCNB1 (human) (UniProt P06493+P14635)
- Sequence (P06493 whole entry, looked up): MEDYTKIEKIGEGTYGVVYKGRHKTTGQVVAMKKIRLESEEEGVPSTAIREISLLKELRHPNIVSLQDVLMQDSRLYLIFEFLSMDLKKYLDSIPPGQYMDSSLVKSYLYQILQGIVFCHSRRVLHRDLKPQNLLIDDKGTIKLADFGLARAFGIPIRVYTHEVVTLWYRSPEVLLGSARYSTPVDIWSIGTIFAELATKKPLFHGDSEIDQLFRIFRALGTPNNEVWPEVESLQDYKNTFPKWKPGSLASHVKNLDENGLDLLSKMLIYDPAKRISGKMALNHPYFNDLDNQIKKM
- Sequence (P14635 whole entry, looked up): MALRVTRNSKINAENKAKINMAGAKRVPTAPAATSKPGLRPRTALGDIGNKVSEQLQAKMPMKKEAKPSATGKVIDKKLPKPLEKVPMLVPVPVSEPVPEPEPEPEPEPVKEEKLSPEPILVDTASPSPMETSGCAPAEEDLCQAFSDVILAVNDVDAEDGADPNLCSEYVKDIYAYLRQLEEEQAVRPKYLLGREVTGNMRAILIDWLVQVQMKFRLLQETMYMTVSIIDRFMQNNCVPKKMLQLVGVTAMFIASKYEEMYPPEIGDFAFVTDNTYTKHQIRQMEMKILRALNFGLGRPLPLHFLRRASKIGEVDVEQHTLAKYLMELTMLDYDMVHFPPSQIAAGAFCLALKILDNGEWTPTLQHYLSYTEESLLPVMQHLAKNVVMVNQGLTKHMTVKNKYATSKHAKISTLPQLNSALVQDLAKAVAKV
- assay procedure: radiometric filter-binding kinase assay, Kinase HotSpot
- protocol conditions: compound 0.5 µM; ATP 10 µM
quantity name: residual activity (%)
Numbers only here, please. The scale is %.

Short answer on CDK1 CCNB1 (human) (UniProt P06493+P14635) for CCn1cnc2c(Nc3cccc(Cl)c3)nc(N[C@@H]3CCCC[C@@H]3N)nc21 , residual activity: 16.4

Now consider a different compound.
Test item O=C1NC(=O)/C(=C\c2ccc3nccnc3c2)S1 ; CDK1 CCNB1 (human) (UniProt P06493+P14635); reported residual activity was 93.8

====

- assayed system: CAMK2D (human) (UniProt Q13557)
- Sequence (Q13557 whole entry, looked up): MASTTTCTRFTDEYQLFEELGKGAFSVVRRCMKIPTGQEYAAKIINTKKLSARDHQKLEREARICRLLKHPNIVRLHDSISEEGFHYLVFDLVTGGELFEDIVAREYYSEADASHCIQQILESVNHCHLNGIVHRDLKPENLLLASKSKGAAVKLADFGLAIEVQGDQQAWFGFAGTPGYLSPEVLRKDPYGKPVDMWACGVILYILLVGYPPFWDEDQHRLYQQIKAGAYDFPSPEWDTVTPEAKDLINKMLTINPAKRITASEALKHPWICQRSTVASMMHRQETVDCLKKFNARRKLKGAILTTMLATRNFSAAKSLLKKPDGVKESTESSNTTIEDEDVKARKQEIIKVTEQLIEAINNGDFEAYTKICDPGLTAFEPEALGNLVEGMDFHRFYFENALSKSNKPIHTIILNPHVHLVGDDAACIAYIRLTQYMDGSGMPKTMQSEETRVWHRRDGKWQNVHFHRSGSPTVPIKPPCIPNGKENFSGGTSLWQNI
- assay procedure: radiometric filter-binding kinase assay, Kinase HotSpot
- protocol conditions: compound 0.5 µM; ATP 10 µM
Listed here are compounds together with their documented residual activity.

Below, each entry is followed by its recorded residual activity result.
Lab book: residual activity of O=C1Cc2c([nH]c3ccc(Br)cc23)-c2ccccc2N1 noted as 91.1%

Entry CCN(CC)CCCCN1c2ccccc2Oc2ccc(Cl)cc21 — recorded residual activity = 105%

The measured residual activity associated with CC(C)c1nn(-c2c(Cl)cccc2Cl)c2nc(Cc3ccc(OCCO)cc3)nc(O)c12 reads 85.7%

GET /value?item= O=C1NC(=O)C(c2cn(CCCO)c3ncccc23)=C1c1cnccn1 &field=residual activity returns 101%

Others:
Reported residual activity for O=C1Nc2ccccc2/C1=C1/Nc2ccccc2/C1=N\OCCC(O)CO (stereo not given) was 29.1%

====

- assayed system: ROS1 (human)
- assay procedure: radiometric filter-binding kinase assay, Kinase HotSpot
- protocol conditions: compound 0.5 µM; ATP 10 µM
quantity name: residual activity (%)
# number only, unit % dropped from output

Worked examples follow.
For Cn1cnc2cc3c(Nc4cccc(Br)c4)ncnc3cc21 the compound record lists residual activity as 99.9

Memo: O=C1Nc2ccccc2/C1=C1\Nc2ccccc2\C1=N/O , reported residual activity: 65.6

For record O=C1Nc2ccccc2/C1=C1/Nc2ccccc2/C1=N\OCCC(O)CO (stereo unspecified) the listed residual activity is 27

For this compound ( CCN(CC)CCCCN1c2ccccc2Oc2ccc(Cl)cc21 ), measured residual activity is 95.3

According to the records, this compound COc1cc2ncc(-c3ccccc3)nc2cc1OC displays residual activity of 100

residual activity reading for Nc1nccc(-c2c(-c3ccc(F)cc3)ncn2C2CCNCC2)n1 : 94.1

Noted for COc1ccc(OC)c2c(=S)c3ccccc3[nH]c12 : its residual activity reads 103

get_value(item= CN([C@@H](Cc1ccc(OS(=O)(=O)c2cccc3cnccc23)cc1)C(=O)N1CCN(c2ccccc2)CC1)S(=O)(=O)c1cccc2cnccc12 , readout=residual activity) returns 96.5

More entries:
Record O=C1Cc2c([nH]c3ccc(Br)cc23)-c2ccccc2N1 . Reported residual activity: 83.6

Entry CN(C)C[C@H]1CCn2c(c(C3=C(c4cn(C)c5ccccc45)C(=O)NC3=O)c3ccccc32)C1 , residual activity reported as 87.1

Value of measured residual activity for the entry CCn1cnc2c(Nc3cccc(Cl)c3)nc(N[C@@H]3CCCC[C@@H]3N)nc21 : 90.7

Lab note: measured residual activity of O=C(O)/C=C/c1cc(Br)c(Br)c(Br)c1Br was 94

For record O=C1NC(=O)C(c2cn(CCCO)c3ncccc23)=C1c1cnccn1 the listed residual activity is 106

What the record says about O=C(CCCc1ccc(-c2ccccc2F)cc1)Nc1ccc(O)cc1 : residual activity is 98.4

The compound Cn1sc(=O)n(Cc2ccccc2)c1=O showed residual activity equal to 103

compound O=C1NC(=O)C(c2c[nH]c3ccccc23)=C1c1c[nH]c2ccccc12 , residual activity observed: 87

====

- assayed system: IGF1R (human)
- assay procedure: radiometric filter-binding kinase assay, Kinase HotSpot
- protocol conditions: compound 0.5 µM; ATP 10 µM
Listing of recorded residual activity by entry.
State the answer as a number, implicitly in %.

Here are 6 molecules together with their reported answers.
Value of measured residual activity for the entry O=C(CCCc1ccc(-c2ccccc2F)cc1)Nc1ccc(O)cc1 : 106

So, CN([C@@H](Cc1ccc(OS(=O)(=O)c2cccc3cnccc23)cc1)C(=O)N1CCN(c2ccccc2)CC1)S(=O)(=O)c1cccc2cnccc12 ? Its residual activity was 105

Input Cc1nc2cc3nc(-c4cccs4)cnc3cc2n1C . Output residual activity: 96.4

The molecule listed as COc1ccc(OC)c2c(=S)c3ccccc3[nH]c12 has a reported residual activity of 97.2

// residual activity lookup, molecule = COc1ccc(CNC(=O)Nc2ncc([N+](=O)[O-])s2)cc1 , result: 101

Recorded result, CC(C)[C@H](CO)Nc1nc(Nc2cc(N)cc(Cl)c2)c2ncn(C(C)C)c2n1 , residual activity: 73

***
Kindly note the recorded residual activity for O=C1Nc2ccccc2/C1=C1\Nc2ccccc2\C1=N/O , which is 80.2

====

- assayed system: RPS6KB2 (human)
- assay procedure: radiometric filter-binding kinase assay, Kinase HotSpot
- protocol conditions: compound 0.5 µM; ATP 10 µM
quantity name: residual activity (%)
Report the value in % with no unit label.

Data point: CN([C@@H](Cc1ccc(OS(=O)(=O)c2cccc3cnccc23)cc1)C(=O)N1CCN(c2ccccc2)CC1)S(=O)(=O)c1cccc2cnccc12 ; residual activity = 96.6

Field residual activity (entry Oc1ccc(Nc2nc(-c3ccc(Cl)cc3)cs2)cc1 ) reads 99.8

====

- assayed system: CLK3 (human)
- assay procedure: radiometric filter-binding kinase assay, Kinase HotSpot
- protocol conditions: compound 0.5 µM; ATP 10 µM
Entries and their residual activity
Could you write the number and then its unit?

Reported residual activity of COc1ccc(OC)c2c(=S)c3ccccc3[nH]c12 : 96.3%

Others:
// residual activity lookup, molecule = COc1cc2ncnc(N3CCN(C(=O)Nc4ccc(Oc5ccccc5)cc4)CC3)c2cc1OC , result: 88.9%

The molecule O=C(CCCc1ccc(-c2ccccc2F)cc1)Nc1ccc(O)cc1 showed residual activity equal to 124%

Given item Oc1ccc(Nc2nc(-c3ccc(Cl)cc3)cs2)cc1 , the value recorded as its residual activity is 92.6%

====

- assayed system: NEK11 (human) (UniProt Q8NG66)
- Sequence (Q8NG66 whole entry, looked up): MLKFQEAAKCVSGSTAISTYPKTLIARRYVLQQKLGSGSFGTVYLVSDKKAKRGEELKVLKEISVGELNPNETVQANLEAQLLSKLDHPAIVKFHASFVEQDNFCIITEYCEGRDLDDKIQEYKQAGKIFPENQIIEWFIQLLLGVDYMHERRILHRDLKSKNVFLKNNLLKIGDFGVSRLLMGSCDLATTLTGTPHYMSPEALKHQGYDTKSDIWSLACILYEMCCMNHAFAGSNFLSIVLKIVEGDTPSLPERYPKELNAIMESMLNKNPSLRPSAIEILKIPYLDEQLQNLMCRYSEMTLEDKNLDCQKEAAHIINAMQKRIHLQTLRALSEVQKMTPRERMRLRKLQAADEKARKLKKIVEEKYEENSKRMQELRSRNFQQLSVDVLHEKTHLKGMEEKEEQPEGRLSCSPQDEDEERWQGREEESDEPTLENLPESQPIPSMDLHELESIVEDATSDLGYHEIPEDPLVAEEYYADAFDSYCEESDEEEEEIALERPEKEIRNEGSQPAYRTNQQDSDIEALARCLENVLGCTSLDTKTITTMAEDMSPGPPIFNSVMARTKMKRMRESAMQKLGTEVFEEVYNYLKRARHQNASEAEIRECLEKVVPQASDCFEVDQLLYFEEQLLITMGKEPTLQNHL
- assay procedure: radiometric filter-binding kinase assay, Kinase HotSpot
- protocol conditions: compound 0.5 µM; ATP 10 µM
quantity name: residual activity (%)
Give just the number in %; leave the unit off.

Sample records with residual activity:
# residual activity of O=C1Nc2ccccc2/C1=C1/Nc2ccccc2/C1=N\OCCC(O)CO (stereo not given) = 92.3

Reported residual activity of CC(C)[C@H](CO)Nc1nc(Nc2cc(N)cc(Cl)c2)c2ncn(C(C)C)c2n1 : 84.2

residual activity for CC(=O)O/N=C1\C(=C2\C(=O)Nc3cc(Br)ccc32)Nc2ccccc21 is 110

The measured residual activity associated with O=C(O)/C=C/c1cc(Br)c(Br)c(Br)c1Br reads 101

Record summary for O=C(Nc1cccc(Nc2cc(Nc3cccc(C(F)(F)F)c3)ncn2)c1)C1CC1 : reported residual activity = 94.3

What the record says about Cn1nc2c3c(cccc31)C(=O)c1ccccc1-2 : residual activity is 105

New cases:
response.value for Cn1cnc2cc3c(Nc4cccc(Br)c4)ncnc3cc21 (field: residual activity) = 101

The compound listed as CC(C)c1nn(-c2c(Cl)cccc2Cl)c2nc(Cc3ccc(OCCO)cc3)nc(O)c12 has a reported residual activity of 109

Please fill in: residual activity reported for O=C(CCCc1ccc(-c2ccccc2F)cc1)Nc1ccc(O)cc1 = 100

According to the records, this compound Nc1nccc(-c2c(-c3ccc(F)cc3)ncn2C2CCNCC2)n1 displays residual activity of 105

residual activity for Cc1nc2cc3nc(-c4cccs4)cnc3cc2n1C is 93.1

Quick note, residual activity for CN(C)C[C@H]1CCn2c(c(C3=C(c4cn(C)c5ccccc45)C(=O)NC3=O)c3ccccc32)C1 landed at 74.1

Given item CN([C@@H](Cc1ccc(OS(=O)(=O)c2cccc3cnccc23)cc1)C(=O)N1CCN(c2ccccc2)CC1)S(=O)(=O)c1cccc2cnccc12 , the value recorded as its residual activity is 103

Query O=C1NC(=O)C(c2cn(CCCO)c3ncccc23)=C1c1cnccn1 yields residual activity of 108

residual activity recorded for this compound, O=C1Nc2ccccc2/C1=C1\Nc2ccccc2\C1=N/O , is 98.2
